- study target: Gal3S(b1-3)GalNAc
- test name: glycan array binding signal (z-score within array); higher = stronger binding
- reported conditions: glycan notation: IUPAC condensed, linker removed
The entries come from a sample that favours the strongest signals as a whole.
experimental endpoint: glycan array binding signal (z-score)

Example binders with recorded glycan array binding signal (z-score):
[
  {
    "binder": "EcCDA (Encephalitazoon cuniculi), Q8SU65 (protein) MLLCLLYFTSSWCSGSDVPDVCTNSGMIAINFVDGPVRGVTDRILNTLDELGVKATFSFTVNQKAVGNVGQLYRRAVEEGHNVALRVDPSMDEGYQCLSQDALENNVDREIDTIDGLSGTEIRYAAVPICNGQVNSEMYNILTERGVLPVGYTFCPYDYDDPVGEFESMIEGSDPKHHSFIILMHDGQEADTSRLENMVKIGKDKGYRFVNMDECLQGYKGAPGDPELSLRGKGVESIGKGFLPFFLMMLVRLL",
    "glycan array binding signal (z-score)": 0.115
  },
  {
    "binder": "SBD-G4S3-SBD (protein) MASIPSSASVQLDSYNYDGSTFSGKIYVKNIAYSKKVTVVYADGSDNWNNNGNIIAASFSGPISGSNYEYWTFSASVKGIKEFYIKYEVSGKTYYDNNNSANYQVSTGGGGSGGGGSGGGGSEFASIPSSASVQLDSYNYDGSTFSGKIYVKNIAYSKKVTVVYADGSDNWNNNGNIIAASFSGPISGSNYEYWTFSASVKGIKEFYIKYEVSGKTYYDNNNSANYQVST",
    "glycan array binding signal (z-score)": -0.369
  }
]

Field glycan array binding signal (z-score) (entry Vd2LysM (Verticillium dahliae) (protein) YRRTCSHTGKGEGWYIIRRGDNFNAVAADFCTSTNVLTEWNHISTITDNMVNTKIKVPCRWNAGKQRDCLKDQKSSNGWYHIVSGDELKDIAYDFCTTSGSLAGMNGISNPDYIKANTDIVVPCSWN ) reads -0.656
